Hello, the source for this data is paper PMC9226124, in case you need it.

biological target: FITC-labeled CFTRpS753pS768 peptide (no 14-3-3) (Homo sapiens, UniProt P13569); construct: made in house; host or cells: synthetic peptide; test: Dose-response FP control assay in the absence of 14-3-3; format: binding; conditions: No 14-3-3; compound 1.52588e-8 M
Sequence (P13569 747-774 limits assumed): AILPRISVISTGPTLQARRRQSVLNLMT
READOUT LABEL: FP signal

1) N=C(N)NCCCC1NCc2ccccc2Sc2ccccc2CNC(=O)C(Cc2ccc(O)cc2)NC(=O)C(CCCN)NC1=O (stereo not drawn) [CY007424] = 7
2) NCCCCC1NCc2ccccc2Sc2ccccc2CNC(=O)C(Cc2cccc(Cl)c2)NC(=O)C(Cc2ccc(O)cc2)NC1=O (stereo not drawn) [CY007288] = 6
3) N=C(N)NCCCC1NC(=O)C(CCCCN)NCc2ccccc2Sc2ccccc2CNC(=O)C(Cc2ccc(O)cc2)NC1=O (stereo not drawn) [CY001951] = 5
4) CC1NC(=O)C(CCCNC(=N)N)NC(=O)C2CCCN2Cc2cccc(c2)-c2ccccc2CNC(=O)C(CCCNC(=N)N)NC1=O (stereo not drawn) [CY007476] = 4
5) NCCCC1NCc2ccccc2Sc2ccccc2CNC(=O)C(Cc2c[nH]c3ccccc23)NC(=O)C(Cc2ccccc2)NC1=O (stereo not drawn) [CY007345] = 4
6) N=C(N)NCCCC1NC(=O)C(CCC(N)=O)NC(=O)C(CCCNC(=N)N)NC(=O)C2CCCN2Cc2cccc(c2)-c2ccccc2CNC1=O (stereo not drawn) [CY007455] = 4

---

biological target: FITC-labeled CFTRpS753pS768 peptide (no 14-3-3) (Homo sapiens); construct: made in house; host or cells: synthetic peptide; assay: Dose-response FP control assay in the absence of 14-3-3; assay type: binding; details: No 14-3-3; compound 1.90735e-9 M
Reported FP signal values for the following molecules.
READOUT LABEL: FP signal

1) N=C(N)NCCCC1NC(=O)C(CCCCN)NCc2ccccc2Sc2ccccc2CNC(=O)C(Cc2ccc(O)cc2)NC1=O (stereo not drawn) = 4
2) NCCCC1NCc2ccccc2Sc2ccccc2CNC(=O)C(Cc2c[nH]c3ccccc23)NC(=O)C(Cc2ccccc2)NC1=O (stereo not drawn) = 4
3) N=C(N)NCCCC1NC(=O)C(CCC(N)=O)NC(=O)C(CCCNC(=N)N)NC(=O)C2CCCN2Cc2cccc(c2)-c2ccccc2CNC1=O (stereo not drawn) [CY007458] = 4
4) NCCCCC1NCc2ccccc2Sc2ccccc2CNC(=O)C(Cc2cccc(Cl)c2)NC(=O)C(Cc2ccc(O)cc2)NC1=O (stereo not drawn) = 5
5) CN1CC(=O)NC(CCCNC(=N)N)C(=O)NC(CCC(N)=O)C(=O)NC(CCCNC(=N)N)C(=O)NCc2ccccc2-c2cccc(c2)C1 (stereo not drawn) = 5
6) C=CC(C)(C)OC[C@H]1O[C@H](O[C@@H]2C3=C([C@H](C)COC(C)=O)C[C@H](O)[C@]3(C)/C=C3/[C@@H](COC)CC[C@H]3[C@@H](C)[C@H]2O)[C@H](O)[C@@H](OC(C)=O)[C@@H]1O [FC-A, fusicoccin A, reference compound] = 0

---

target: 14-3-3β/CFTRpS753pS768 complex (Homo sapiens, UniProt P13569+P31946); construct: His6 (cleaved yes); made in house; peptide synthetic; assay: Dose-response fluorescence polarization (FP) assay, compound titration; format: binding; conditions: With 14-3-3; compound 3.05176e-8 M
Sequence (P31946 whole entry): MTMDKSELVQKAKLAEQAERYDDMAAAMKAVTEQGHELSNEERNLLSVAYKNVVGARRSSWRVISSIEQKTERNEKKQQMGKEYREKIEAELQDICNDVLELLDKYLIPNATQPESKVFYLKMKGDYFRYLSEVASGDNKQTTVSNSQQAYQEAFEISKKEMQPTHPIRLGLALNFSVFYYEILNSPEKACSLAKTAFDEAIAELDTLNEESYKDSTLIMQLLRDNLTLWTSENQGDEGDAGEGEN
Reported FP signal values for the following compounds.
READOUT LABEL: FP signal

1. NCCCCC1NCc2ccccc2Sc2ccccc2CNC(=O)C(Cc2cccc(Cl)c2)NC(=O)C(Cc2ccc(O)cc2)NC1=O (stereo not drawn) = 5
2. NCCCC1NCc2ccccc2Sc2ccccc2CNC(=O)C(Cc2c[nH]c3ccccc23)NC(=O)C(Cc2ccccc2)NC1=O (stereo not drawn) = 4
3. N=C(N)NCCCC1NC(=O)C(CCC(N)=O)NC(=O)C(CCCNC(=N)N)NC(=O)C2CCCN2Cc2cccc(c2)-c2ccccc2CNC1=O (stereo not drawn) [CY007458] = 6
4. CN1CC(=O)NC(CCCNC(=N)N)C(=O)NC(CCC(N)=O)C(=O)NC(CCCNC(=N)N)C(=O)NCc2ccccc2-c2cccc(c2)C1 (stereo not drawn) = 3
5. N=C(N)NCCCC1NC(=O)C(CCC(N)=O)NC(=O)C(CCCNC(=N)N)NC(=O)C2CCCN2Cc2cccc(c2)-c2ccccc2CNC1=O (stereo not drawn) [CY007455] = 4
6. C=CC(C)(C)OC[C@H]1O[C@H](O[C@@H]2C3=C([C@H](C)COC(C)=O)C[C@H](O)[C@]3(C)/C=C3/[C@@H](COC)CC[C@H]3[C@@H](C)[C@H]2O)[C@H](O)[C@@H](OC(C)=O)[C@@H]1O [FC-A, fusicoccin A, reference compound] = 2

---

molecular target: FITC-labeled CFTRpS753pS768 peptide (no 14-3-3) (Homo sapiens, UniProt P13569); construct: made in house; host or cells: synthetic peptide; experiment: Dose-response FP control assay in the absence of 14-3-3; type: binding; settings: No 14-3-3; compound 1.52588e-8 M
Reported FP signal values for the following molecules.
READOUT LABEL: FP signal

1) N=C(N)NCCCC1NC(=O)C(CCC(N)=O)NC(=O)C(CCCNC(=N)N)NC(=O)C2CCCN2Cc2cccc(c2)-c2ccccc2CNC1=O (stereo not drawn) [CY007458] = 4
2) CN1CC(=O)NC(CCCNC(=N)N)C(=O)NC(CCC(N)=O)C(=O)NC(CCCNC(=N)N)C(=O)NCc2ccccc2-c2cccc(c2)C1 (stereo not drawn) = 6
3) C=CC(C)(C)OC[C@H]1O[C@H](O[C@@H]2C3=C([C@H](C)COC(C)=O)C[C@H](O)[C@]3(C)/C=C3/[C@@H](COC)CC[C@H]3[C@@H](C)[C@H]2O)[C@H](O)[C@@H](OC(C)=O)[C@@H]1O [FC-A, fusicoccin A, reference compound] = 2

---

Reported FP signal values for the following molecules.
target: 14-3-3β/CFTRpS753pS768 complex (Homo sapiens, UniProt P13569+P31946); construct: His6 (cleaved yes); made in house; peptide synthetic; assay: Dose-response fluorescence polarization (FP) assay, compound titration; format: binding; details: With 14-3-3; compound 0.000125 M
READOUT LABEL: FP signal

1. CC1NC(=O)C(CCCNC(=N)N)NC(=O)C2CCCN2Cc2cccc(c2)-c2ccccc2CNC(=O)C(CCCNC(=N)N)NC1=O (stereo not drawn) = 124
2. NCCCCC1NCc2ccccc2Sc2ccccc2CNC(=O)C(Cc2cccc(Cl)c2)NC(=O)C(Cc2ccc(O)cc2)NC1=O (stereo not drawn) = 97
3. C=CC(C)(C)OC[C@H]1O[C@H](O[C@@H]2C3=C([C@H](C)COC(C)=O)C[C@H](O)[C@]3(C)/C=C3/[C@@H](COC)CC[C@H]3[C@@H](C)[C@H]2O)[C@H](O)[C@@H](OC(C)=O)[C@@H]1O [FC-A, fusicoccin A, reference compound] = 91

---

biological target: 14-3-3β/CFTRpS753pS768 complex (Homo sapiens, UniProt P13569+P31946); construct: His6 (cleaved yes); made in house; peptide synthetic; experiment: Dose-response fluorescence polarization (FP) assay, compound titration; assay type: binding; conditions: With 14-3-3; compound 7.8125e-6 M
Think of 10 as a floor: if FP signal stands on it or above, it is true; beneath it, false.

1. N=C(N)NCCCC1NC(=O)C(CCCCN)NCc2ccccc2Sc2ccccc2CNC(=O)C(Cc2ccc(O)cc2)NC1=O (stereo not drawn) = false
2. N=C(N)NCCCC1NC(=O)C(CCC(N)=O)NC(=O)C(CCCNC(=N)N)NC(=O)C2CCCN2Cc2cccc(c2)-c2ccccc2CNC1=O (stereo not drawn) [CY007455] = false
3. N=C(N)NCCCC1NCc2ccccc2Sc2ccccc2CNC(=O)C(Cc2ccc(O)cc2)NC(=O)C(CCCN)NC1=O (stereo not drawn) = true
4. C=CC(C)(C)OC[C@H]1O[C@H](O[C@@H]2C3=C([C@H](C)COC(C)=O)C[C@H](O)[C@]3(C)/C=C3/[C@@H](COC)CC[C@H]3[C@@H](C)[C@H]2O)[C@H](O)[C@@H](OC(C)=O)[C@@H]1O [FC-A, fusicoccin A, reference compound] = true
5. NCCCC1NCc2ccccc2Sc2ccccc2CNC(=O)C(Cc2c[nH]c3ccccc23)NC(=O)C(Cc2ccccc2)NC1=O (stereo not drawn) = true
6. N=C(N)NCCCC1NC(=O)C(CCC(N)=O)NC(=O)C(CCCNC(=N)N)NC(=O)C2CCCN2Cc2cccc(c2)-c2ccccc2CNC1=O (stereo not drawn) [CY007458] = true
7. CN1CC(=O)NC(CCCNC(=N)N)C(=O)NC(CCC(N)=O)C(=O)NC(CCCNC(=N)N)C(=O)NCc2ccccc2-c2cccc(c2)C1 (stereo not drawn) = false
8. NCCCCC1NCc2ccccc2Sc2ccccc2CNC(=O)C(Cc2cccc(Cl)c2)NC(=O)C(Cc2ccc(O)cc2)NC1=O (stereo not drawn) = false
